Data origin, for the record: patent US7030138B2

Please provide measured IC50 for the entries that follow.
# Target System: human factor-Xa (Homo sapiens, UniProt P00742)
# Construct: purchased Cosmobio Co., Ltd
# Sequence (P00742 235-488 limits assumed): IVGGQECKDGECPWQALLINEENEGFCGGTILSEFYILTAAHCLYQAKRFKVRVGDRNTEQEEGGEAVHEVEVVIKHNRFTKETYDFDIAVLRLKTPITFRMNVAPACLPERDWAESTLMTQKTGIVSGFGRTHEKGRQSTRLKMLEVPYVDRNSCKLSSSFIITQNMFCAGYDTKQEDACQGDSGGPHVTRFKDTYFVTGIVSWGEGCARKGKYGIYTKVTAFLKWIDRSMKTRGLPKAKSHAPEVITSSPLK
# Sequence (P00742 41-179 partner limits assumed): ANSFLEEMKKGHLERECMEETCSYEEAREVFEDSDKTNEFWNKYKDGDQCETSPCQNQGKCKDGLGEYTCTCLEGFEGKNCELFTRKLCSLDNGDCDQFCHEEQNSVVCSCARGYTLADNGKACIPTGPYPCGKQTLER
# Assay Text: Determination of anti-factor Xa activity (S-2222 coloring substrate, absorbance at 405 nm)
# Assay type: biochemical
# Details: human factor-Xa 0.25 unit/ml, S-2222 0.4 mM, Tris buffer pH 8.4, room temperature, 5 minutes; read-out: Inhibitory Action against Factor Xa Activity (IC50 (nM))
Where a name gives a salt, the structure may show the parent alone.
Number first, unit second: that is the form wanted.

Please indicate recorded IC50 of CCOC(=O)CS(=O)(=O)N(C/C=C/c1cccc(C(=N)N)c1)c1ccc(OC2CCN(C3=NCCC3)CC2)c(Cl)c1 [Example 53, dihydrochloride] measured with human factor-Xa (Homo sapiens, UniProt P00742).
6.8 nM

Look up and report measured IC50 (human factor-Xa (Homo sapiens, UniProt P00742)) for the following molecule: N=C(N)c1cccc(/C=C/CN(c2ccc(OC3CCN(C4=NCCC4)CC3)c(C(F)(F)F)c2)S(=O)(=O)CC(=O)O)c1 [Example 78, dihydrochloride]
11 nM

Lab note: human factor-Xa (Homo sapiens, UniProt P00742) assay, enter IC50 for N=C(N)c1cccc(/C=C/CN(c2ccc(OC3CCN(c4ccncc4)CC3)c(Cl)c2)S(=O)(=O)CC(=O)O)c1 [Example 28, dihydrochloride] here
6.4 nM

Give human factor-Xa (Homo sapiens, UniProt P00742) IC50 for the following molecule: N=C(N)c1cccc(/C=C/CN(c2ccc(OC3CCN(C4=NCCCC4)CC3)c(Cl)c2)S(=O)(=O)CC(=O)O)c1 [Example 56, dihydrochloride]
10 nM

# assay system human factor-Xa (Homo sapiens, UniProt P00742): give IC50 of N=C(N)c1cccc(/C=C/CN(c2ccc(OC3CCN4CCCC4C3)c(Cl)c2)S(=O)(=O)CC(=O)O)c1 (stereo not drawn) [Example 42, dihydrochloride]
11 nM

Report IC50 on human factor-Xa (Homo sapiens, UniProt P00742) for this entry: CN1CCC(Oc2ccc(N(C/C=C/c3cccc(C(=N)N)c3)S(=O)(=O)CC(=O)O)cc2C(F)(F)F)CC1 [Example 46, dihydrochloride]
11 nM

====

Kindly state IC50 for each of the entries shown.
# Target System: human factor-Xa (Homo sapiens)
# Construct: purchased Cosmobio Co., Ltd
# Assay Text: Determination of anti-factor Xa activity (S-2222 coloring substrate, absorbance at 405 nm)
# Format: biochemical
# Details: human factor-Xa 0.25 unit/ml, S-2222 0.4 mM, Tris buffer pH 8.4, room temperature, 5 minutes; read-out: Inhibitory Action against Factor Xa Activity (IC50 (nM))
Counter-ions that a name gives are not always drawn.
Output spec: scalar in nM, unitless text.

Using the record for CCOC(=O)CS(=O)(=O)N(C/C=C/c1cccc(C(=N)N)c1)c1ccc(OC2CCN(c3ccncc3)CC2)c(Cl)c1 [Example 27, dihydrochloride] , state its measured IC50.
7.9

Consider the compound N=C(N)c1cccc(/C=C/CN(c2ccc(OC3CCN(Cc4ccccc4)CC3)c(Cl)c2)S(=O)(=O)CC(=O)O)c1 [Example 10, dihydrochloride] . State its measured IC50.
15

State its IC50 for this compound: N=C(N)c1cccc(/C=C/CN(c2ccc(OC3CCN(C4=NCCCC4)CC3)c(C(F)(F)F)c2)S(=O)(=O)CC(=O)O)c1 [Example 80, dihydrochloride]
11
